EC50 (nM), CD137 reporter assay, co-culture with PC3 (EphA2) listing for selected binders.
target: CD137 expressed on cells (CHO cells expressing CD137; Jurkat cells of the Promega CD137 luciferase reporter assay) (UniProt Q07011); experiment: cell-based or functional assay
Sequence (Q07011 24-255 limits assumed): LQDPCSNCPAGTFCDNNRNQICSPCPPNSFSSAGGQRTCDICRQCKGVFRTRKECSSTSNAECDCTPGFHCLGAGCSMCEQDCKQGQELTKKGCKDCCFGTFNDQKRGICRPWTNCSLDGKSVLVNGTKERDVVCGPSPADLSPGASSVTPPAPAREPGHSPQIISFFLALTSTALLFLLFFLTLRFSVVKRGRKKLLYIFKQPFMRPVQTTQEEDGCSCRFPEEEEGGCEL
Starred links: 1 amine or outer side, 2 acyl side, 3 side chain; linkers in the order of their positions; H or OH if unused. Positions of bridges follow the written chain, without caps; N, C: chain ends. Non-standard residues stand in square brackets, D forms with d. Chains are numbered I, II in the order given. No end group written: not given here. *: point of attachment. TATA = O=C(CC[*:1])N1CN(C(=O)CC[*:2])CN(C(=O)CC[*:3])C1; Hyp = O=C(O)[C@@H]1C[C@@H](O)CN1; hArg = N=C(N)NCCCC[C@H](N)C(=O)O; tBuAla = CC(C)(C)C[C@H](N)C(=O)O; Nle = CCCC[C@H](N)C(=O)O; Pent4ynoyl = C#CCCC(=O)*; βAla = NCCC(=O)O; Sar = CNCC(=O)O
Observable: EC50 (nM), CD137 reporter assay, co-culture with PC3 (EphA2)

# Binder, Val
rows = [
    ("heterotandem bicyclic peptide complex BCY10570 (linker I:14-I:21-I:28, II:1-II:8-II:15 via TATA; not fully specified (C-terminus); numbers in words are those of the source; also: chains joined by PEG12 linker, triazole from PYA, linker on chain 2 D-Lys side chain) peptide 1: {Pent4ynoyl-βAla}-[Sar][Sar][Sar][Sar][Sar][Sar][Sar][Sar][Sar][Sar]A[hArg]DC[Hyp]LVNPLCLHP[dD]W[hArg]C peptide 2: Ac-C[tBuAla]PE[dK]PYCFADPY[Nle]CA", 0.41),
    ("heterotandem bicyclic peptide complex BCY10568 (linker I:14-I:21-I:28, II:1-II:8-II:15 via TATA; not fully specified (C-terminus); numbers in words are those of the source; also: chains joined by PEG12 linker, triazole from PYA, linker on chain 2 Lys4 side chain) peptide 1: {Pent4ynoyl-βAla}-[Sar][Sar][Sar][Sar][Sar][Sar][Sar][Sar][Sar][Sar]A[hArg]DC[Hyp]LVNPLCLHP[dD]W[hArg]C peptide 2: Ac-C[tBuAla]PK[dA]PYCFADPY[Nle]CA", 0.25),
]
